Source listed as patent US20250145639A1.

Entries and their measured pIC50 follow.
- target entity: HIS-KRAS (G12C, aa 2-185) (Homo sapiens, UniProt P01116, G12C)
- Construct: HIS-KRAS (G12C, aa 2-185, Sino biological)
- Sequence (P01116 2-185 isoform P01116-2 G12C): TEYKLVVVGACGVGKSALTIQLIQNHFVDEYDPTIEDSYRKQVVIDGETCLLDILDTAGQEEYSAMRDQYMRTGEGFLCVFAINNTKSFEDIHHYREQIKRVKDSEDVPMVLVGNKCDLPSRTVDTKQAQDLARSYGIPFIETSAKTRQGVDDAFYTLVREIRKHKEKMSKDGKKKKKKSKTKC
- assay text: KRas G12C binding assay (TR-FRET, SOS1-mediated BODIPY FL GTP nucleotide exchange)
- test context: GDP-loaded HIS-KRAS (G12C) 3 nM, 1 hour pre-incubation with compound, 4 hours with SOS1 ExD and BODIPY FL GTP at 25° C
Please express pIC50 as -log10 of the molar concentration.

Prompt: What does the data say about its pIC50? Entry: C#Cc1c(F)ccc2cc(O)cc(-c3ncc4c(N5CCCC[C@@H](NC(=O)C=C)C5)nc(OCC56CCCN5CCC6)nc4c3F)c12
Completion: 8.15

Prompt: // next record C#Cc1c(F)ccc2cc(O)cc(-c3ncc4c(N5C[C@H]6CC[C@@H](C5)N6C(=O)C=C)nc(OC[C@]5(C)C[C@@H](F)CN5C)nc4c3F)c12
Completion: 9.02

Prompt: // next record C#Cc1c(F)ccc2cccc(-c3ncc4c(N5C[C@H]6CC[C@@H](C5)N6C(=O)C=C)nc(OCC56CCCN5CCC6)nc4c3F)c12
Completion: 8.50

Prompt: // next record C#Cc1c(F)ccc2cc(O)cc(-c3ncc4c(N5C[C@H]6CC[C@@H](C5)N6C(=O)C=C)nc(OC[C@@H]5CCCN5C)nc4c3F)c12
Completion: 9.44
